- protocol text: amyloid nucleation score (Sup35N fusion, yeast selection) (log enrichment); library NNK2; higher = more nucleation; inactive = no reads after selection;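 further: zero at mode of non-aggregating sequences after 7 days selection at 30°C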
measure: amyloid nucleation score
Kindly provide the number alone.

Consider GIFWTVNIGEICGAIEWSEG . Its measured amyloid nucleation score is 0.276

Consider LNHIYYLAIQTTACILTMGE . Its measured amyloid nucleation score is -1.07

Consider TMLSESTVQTKRVRMQESRR . Its measured amyloid nucleation score is 7.03

Consider SDHMYMIFMTMFVVVSHWVI . Its measured amyloid nucleation score is -0.795

Consider VVDVVIGYWGRVMSDGCVAG . Its measured amyloid nucleation score is 0.816

Consider VAEVKRLHIYWRAPSFRSAN . Its measured amyloid nucleation score is -0.596

---

- protocol text: amyloid nucleation score (Sup35N fusion, yeast selection) (log enrichment); library NNK3; higher = more nucleation; inactive = no reads after selection
measure: amyloid nucleation score

See these solved cases before continuing.
substance | result
VKTKPFHLRYR | inactive
LCKCLLIEFCYVVK | 0.772
ISHCMVLRNA | 2.49
CRVSGMDICLWSMMCDSVGS | inactive

Consider WCCHRAFLYI . Its measured amyloid nucleation score is inactive

Consider CANFRV . Its measured amyloid nucleation score is inactive

Consider CLYVSLS . Its measured amyloid nucleation score is inactive

Consider GVSMERLKFDIVL . Its measured amyloid nucleation score is inactive

Consider RTRFFSQFSSL . Its measured amyloid nucleation score is inactive

Consider SLRSCGSGLRSYRAVKTLPG . Its measured amyloid nucleation score is inactive

Consider SWKGGLQTDDGSKGS . Its measured amyloid nucleation score is inactive

Consider HFLFSNQNIRSLNIVFNSRV . Its measured amyloid nucleation score is 2.2

Consider CVFRYLVHHERMSYILNAGC . Its measured amyloid nucleation score is inactive

Consider GLFLGYSLIASVIGRLVDNL . Its measured amyloid nucleation score is inactive

Consider FVGRFCMFNLGRCLPIVLGS . Its measured amyloid nucleation score is inactive

Consider TRRGHHCQFLVSGSGIAL . Its measured amyloid nucleation score is inactive

Consider SCGTCKTSFIKR . Its measured amyloid nucleation score is inactive

Consider ASFKFGG . Its measured amyloid nucleation score is inactive

---

- protocol text: amyloid nucleation score (Sup35N fusion, yeast selection) (log enrichment); library NNK1; higher = more nucleation; inactive = no reads after selection
amyloid nucleation score of 0.4 or higher: condition met. Under 0.4: condition not met.

Ask: Answer whether amyloid nucleation score of MASRHKEWRCVMYEHGLRAC is greater than or equal to 0.4.
Reply: condition met

Ask: Answer whether amyloid nucleation score of VKMFMD is greater than or equal to 0.4.
Reply: condition met

Ask: Answer whether amyloid nucleation score of LVRWVCIGFRYILRGELGVE is greater than or equal to 0.4.
Reply: condition not met

Ask: Answer whether amyloid nucleation score of TLVIVTFFMIFIGMVSVFYR is greater than or equal to 0.4.
Reply: condition met

Ask: Answer whether amyloid nucleation score of NGFLHIRLRISALCELL is greater than or equal to 0.4.
Reply: condition not met

Ask: Answer whether amyloid nucleation score of SNNELSTMTRL is greater than or equal to 0.4.
Reply: condition not met

Ask: Answer whether amyloid nucleation score of CRSFYIIEIVKMGPNGRKGV is greater than or equal to 0.4.
Reply: condition not met

Ask: Answer whether amyloid nucleation score of RYVTDSGVGSIPRYLIKCSR is greater than or equal to 0.4.
Reply: condition not met

Ask: Answer whether amyloid nucleation score of STNLMKMWLFHLRDTAR is greater than or equal to 0.4.
Reply: condition met

Ask: Answer whether amyloid nucleation score of LCCAKLRNAIKVVNQCTCGY is greater than or equal to 0.4.
Reply: condition met

Ask: Answer whether amyloid nucleation score of CLRDNSRRGRNVQSL is greater than or equal to 0.4.
Reply: condition not met

Ask: Answer whether amyloid nucleation score of CCYDPNGLAKNKTW is greater than or equal to 0.4.
Reply: condition not met

Ask: Answer whether amyloid nucleation score of ATHPDSSMYNRTTSSNFMWF is greater than or equal to 0.4.
Reply: condition not met

Ask: Answer whether amyloid nucleation score of MVNILIK is greater than or equal to 0.4.
Reply: condition met

Ask: Answer whether amyloid nucleation score of SYVVYCHSAMRRKGSMGRYL is greater than or equal to 0.4.
Reply: condition met

Ask: Answer whether amyloid nucleation score of RFEKTWHWSAIAGRQGGGIF is greater than or equal to 0.4.
Reply: condition not met

Ask: Answer whether amyloid nucleation score of HYHFDTACVWCDYSVHGNKD is greater than or equal to 0.4.
Reply: condition met

Ask: Answer whether amyloid nucleation score of NLRIGFVEQLSSGVLDGPDD is greater than or equal to 0.4.
Reply: condition met

Ask: Answer whether amyloid nucleation score of DMVVRDQHL is greater than or equal to 0.4.
Reply: condition met

Ask: Answer whether amyloid nucleation score of GMHLNCHGCILSSV is greater than or equal to 0.4.
Reply: condition not met

Ask: Answer whether amyloid nucleation score of RSYSNPLSSVSLSNYSFGVY is greater than or equal to 0.4.
Reply: condition not met

Ask: Answer whether amyloid nucleation score of GYGQCSGSYAGSGGT is greater than or equal to 0.4.
Reply: condition met

Ask: Answer whether amyloid nucleation score of PSTTLFWLVMRKHILQHTRR is greater than or equal to 0.4.
Reply: condition not met

Ask: Answer whether amyloid nucleation score of TRTPAWGWFPQST is greater than or equal to 0.4.
Reply: condition not met

Ask: Answer whether amyloid nucleation score of RRRMFSCLDPEVWEVQRGRV is greater than or equal to 0.4.
Reply: condition not met

Ask: Answer whether amyloid nucleation score of GERGQFTILISYMALRDRLM is greater than or equal to 0.4.
Reply: condition met

Ask: Answer whether amyloid nucleation score of CMAVWEKIENGVHLLHRSAD is greater than or equal to 0.4.
Reply: condition met

Ask: Answer whether amyloid nucleation score of RMVTTIIERVSIVCMKPSYR is greater than or equal to 0.4.
Reply: condition met

Ask: Answer whether amyloid nucleation score of SAILVLFEVHFMAPLLCHYL is greater than or equal to 0.4.
Reply: condition not met

Ask: Answer whether amyloid nucleation score of HLINVQ is greater than or equal to 0.4.
Reply: condition met

Ask: Answer whether amyloid nucleation score of TGEPKRS is greater than or equal to 0.4.
Reply: condition met

Ask: Answer whether amyloid nucleation score of CIVNMNRGWISIDLLRD is greater than or equal to 0.4.
Reply: condition met

Ask: Answer whether amyloid nucleation score of TSMVNI is greater than or equal to 0.4.
Reply: condition not met

Ask: Answer whether amyloid nucleation score of FFSMSSVTNKFSTSCRLNHS is greater than or equal to 0.4.
Reply: condition met

Ask: Answer whether amyloid nucleation score of VFCYQT is greater than or equal to 0.4.
Reply: condition not met

Ask: Answer whether amyloid nucleation score of YSYGCCSMLNVVS is greater than or equal to 0.4.
Reply: condition met

Ask: Answer whether amyloid nucleation score of FVCSVFKSYCKSRVFFARAT is greater than or equal to 0.4.
Reply: condition not met

Ask: Answer whether amyloid nucleation score of MGPMCSQPLHVPSMVSMVTL is greater than or equal to 0.4.
Reply: condition met

Ask: Answer whether amyloid nucleation score of GICLIAVVRGLIERGNGETE is greater than or equal to 0.4.
Reply: condition not met

Ask: Answer whether amyloid nucleation score of YFFRKLSGSWASSFLVAPMV is greater than or equal to 0.4.
Reply: condition met

Ask: Answer whether amyloid nucleation score of GNWASIWPLGFELLSYICQE is greater than or equal to 0.4.
Reply: condition not met

Ask: Answer whether amyloid nucleation score of RQGLGAVVNENV is greater than or equal to 0.4.
Reply: condition not met

Ask: Answer whether amyloid nucleation score of KVWSGCSAPQ is greater than or equal to 0.4.
Reply: condition met

Ask: Answer whether amyloid nucleation score of YYPGSGFH is greater than or equal to 0.4.
Reply: condition not met

Ask: Answer whether amyloid nucleation score of TEELYTGVTFL is greater than or equal to 0.4.
Reply: condition not met

Ask: Answer whether amyloid nucleation score of KLKINCMYN is greater than or equal to 0.4.
Reply: condition met

Ask: Answer whether amyloid nucleation score of FVKVLDFYLMLSCHTICLFG is greater than or equal to 0.4.
Reply: condition not met

Ask: Answer whether amyloid nucleation score of MGVVQCAKRQQRLLMQLTVL is greater than or equal to 0.4.
Reply: condition not met

Ask: Answer whether amyloid nucleation score of ENWATFEEYPT is greater than or equal to 0.4.
Reply: condition not met

Ask: Answer whether amyloid nucleation score of TVLYPGPGAVS is greater than or equal to 0.4.
Reply: condition not met

Ask: Answer whether amyloid nucleation score of ASAGPRWIWFGLGLQRCDAY is greater than or equal to 0.4.
Reply: condition not met

Ask: Answer whether amyloid nucleation score of EKTYSCHECFFIWPRSY is greater than or equal to 0.4.
Reply: condition not met

Ask: Answer whether amyloid nucleation score of DNNYSCILAASYLYGLKNYL is greater than or equal to 0.4.
Reply: condition not met

Ask: Answer whether amyloid nucleation score of VLGMPSLRILYITCCSDMVC is greater than or equal to 0.4.
Reply: condition met

Ask: Answer whether amyloid nucleation score of YDEGWANT is greater than or equal to 0.4.
Reply: condition not met

Ask: Answer whether amyloid nucleation score of LTYRVFIHYRSRQYVFGTVS is greater than or equal to 0.4.
Reply: condition not met

Ask: Answer whether amyloid nucleation score of LCAFLPVRTVKLCAFRIFDR is greater than or equal to 0.4.
Reply: condition not met

Ask: Answer whether amyloid nucleation score of WFICKYNQFDHDVLFSVSTA is greater than or equal to 0.4.
Reply: condition met

Ask: Answer whether amyloid nucleation score of LMYSVS is greater than or equal to 0.4.
Reply: condition met

Ask: Answer whether amyloid nucleation score of YNCLYDRPFRMMSQCLNIGM is greater than or equal to 0.4.
Reply: condition not met

Ask: Answer whether amyloid nucleation score of CLFNEALINANHLNNINWML is greater than or equal to 0.4.
Reply: condition not met

Ask: Answer whether amyloid nucleation score of MVVVVRTVLQVMRGR is greater than or equal to 0.4.
Reply: condition not met

Ask: Answer whether amyloid nucleation score of VFSFYNRNLLILNISLYGYC is greater than or equal to 0.4.
Reply: condition met

Ask: Answer whether amyloid nucleation score of VVESTGFIWAGEWVLWIEFS is greater than or equal to 0.4.
Reply: condition not met

Ask: Answer whether amyloid nucleation score of YSFSISVYLLGLSCCCWMGE is greater than or equal to 0.4.
Reply: condition met

Ask: Answer whether amyloid nucleation score of WFIRARFTLGKRNELREVI is greater than or equal to 0.4.
Reply: condition met

Ask: Answer whether amyloid nucleation score of HMGVRMNHFFTSDLSVVMWF is greater than or equal to 0.4.
Reply: condition met

Ask: Answer whether amyloid nucleation score of MTAIFSRSSQNFFVGW is greater than or equal to 0.4.
Reply: condition met
